Assign AIRE transcriptional activation functional score to each entry below.
B1: library; numbered along this chain (parent)
chain: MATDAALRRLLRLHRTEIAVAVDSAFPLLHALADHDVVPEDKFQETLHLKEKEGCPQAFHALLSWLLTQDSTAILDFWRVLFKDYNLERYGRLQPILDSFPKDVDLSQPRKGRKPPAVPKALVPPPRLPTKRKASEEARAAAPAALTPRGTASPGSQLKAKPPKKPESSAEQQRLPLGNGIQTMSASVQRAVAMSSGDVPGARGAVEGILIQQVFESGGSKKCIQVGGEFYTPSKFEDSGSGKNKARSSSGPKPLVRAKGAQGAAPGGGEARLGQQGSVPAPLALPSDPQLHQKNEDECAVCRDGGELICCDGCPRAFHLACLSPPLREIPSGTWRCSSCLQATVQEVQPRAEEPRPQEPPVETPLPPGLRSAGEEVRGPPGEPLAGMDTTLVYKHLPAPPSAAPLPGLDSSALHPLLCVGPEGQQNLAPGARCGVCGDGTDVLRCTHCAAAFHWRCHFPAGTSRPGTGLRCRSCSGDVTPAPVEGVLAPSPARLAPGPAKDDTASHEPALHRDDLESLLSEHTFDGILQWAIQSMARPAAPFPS

# Variants of: B1
# experiment.notes: AIRE transcriptional activation functional score (insulin promoter-GFP; nonsense median 0, synonymous median 1) (normalised score); higher = higher AIRE activity (more reporter activation)
# condition.label: with insulin promoter-GFP reporter in HEK293
No unit in the answer, please; the number alone is enough.

[Q] Given A413S , state its recorded AIRE transcriptional activation functional score.
[A] 0.965

[Q] How about G268D ?
[A] 0.854

[Q] How about D23H ?
[A] 1.33

[Q] How about C475P ?
[A] -0.156

[Q] How about R127K ?
[A] 0.758

[Q] How about K52E ?
[A] 0.994

[Q] How about A5M ?
[A] 0.955

[Q] How about L49G ?
[A] -0.0766

[Q] How about G268P ?
[A] 0.869

[Q] How about E136A ?
[A] 1.16

[Q] How about P416N ?
[A] 1.21

Source of measurements: the supplement of paper PMC12667976
